assayTarget: T1, recombinant human FcRn (Sino Biological Inc. Cat. No. CT009-H08H) (human, UniProt P55899 24-290; P61769 21-119)
T1 construct: Bought protein; also called hFcRn (SINO); immobilized FcRn
T1 sequence (P55899 24-290 limits assumed, chain 1 of 2): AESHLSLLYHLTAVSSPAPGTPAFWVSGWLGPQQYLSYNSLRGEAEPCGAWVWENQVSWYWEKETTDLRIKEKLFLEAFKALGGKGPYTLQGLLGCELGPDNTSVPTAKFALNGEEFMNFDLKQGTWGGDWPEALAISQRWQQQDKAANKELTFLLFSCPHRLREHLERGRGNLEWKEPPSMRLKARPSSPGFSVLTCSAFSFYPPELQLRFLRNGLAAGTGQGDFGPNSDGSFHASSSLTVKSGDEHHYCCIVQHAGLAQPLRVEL
T1 sequence (P61769 21-119 limits assumed, chain 2 of 2): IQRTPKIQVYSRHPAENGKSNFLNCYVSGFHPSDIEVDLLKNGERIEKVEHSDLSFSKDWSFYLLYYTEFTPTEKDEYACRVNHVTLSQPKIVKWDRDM
protocolSummary: scFv competition ELISA vs biotinylated parent murine antibody, captured FcRn, pH 7.4
attributeMeasured: fold decrease in IC50 (relative to humanized parent scFV) (fold)

| binder | resultNumber |
| --- | --- |
| G4 VH1 scFv with humanized parental Vκ1 (scFv) scFv: QVQLVQSGAELKKPGASVKLSCKASGYTFTSYGISWVKQATGQGLEWIGEIYPRSGNTYYNEKFKGRATLTADKSTSTAYMELRSLRSEDSAVYFCARSTTVSPPHLWGTGTTVTVSSGGGGSGGGGSGGGGSDIQMTQSPSYLSASVGDRVTITCKASDHINNWLAWYQQKPGQAPRLLISGATSLETGVPSRFSGSGTGKDYTLTISSLQTEDFATYYCQQYWSTPYTFGGGTKVEIK | 29 |
| H2 VH1 scFv with humanized parental Vκ1 (scFv) scFv: QVQLVQSGAELKKPGASVKLSCKASGYTFTSYGISWVKQATGQGLEWIGEIYPRSGNTYYNEKFKGRATLTADKSTSTAYMELRSLRSEDSAVYFCARSTTVAPPAHWGTGTTVTVSSGGGGSGGGGSGGGGSDIQMTQSPSYLSASVGDRVTITCKASDHINNWLAWYQQKPGQAPRLLISGATSLETGVPSRFSGSGTGKDYTLTISSLQTEDFATYYCQQYWSTPYTFGGGTKVEIK | 23.8 |
| A4 VH1 scFv with humanized parental Vκ1 (scFv) scFv: QVQLVQSGAELKKPGASVKLSCKASGYTFTSYGISWVKQATGQGLEWIGEIYPRSGNTYYNEKFKGRATLTADKSTSTAYMELRSLRSEDSAVYFCARSTTVSPADFRGTGTTVTVSSGGGGSGGGGSGGGGSDIQMTQSPSYLSASVGDRVTITCKASDHINNWLAWYQQKPGQAPRLLISGATSLETGVPSRFSGSGTGKDYTLTISSLQTEDFATYYCQQYWSTPYTFGGGTKVEIK | 7.18 |
| A7 VH1 scFv with humanized parental Vκ1 (scFv) scFv: QVQLVQSGAELKKPGASVKLSCKASGYTFTSYGISWVKQATGQGLEWIGEIYPRSGNTYYNEKFKGRATLTADKSTSTAYMELRSLRSEDSAVYFCARSTTVSPPPIWGTGTTVTVSSGGGGSGGGGSGGGGSDIQMTQSPSYLSASVGDRVTITCKASDHINNWLAWYQQKPGQAPRLLISGATSLETGVPSRFSGSGTGKDYTLTISSLQTEDFATYYCQQYWSTPYTFGGGTKVEIK | 20 |
| F7 VH1 scFv with humanized parental Vκ1 (scFv) scFv: QVQLVQSGAELKKPGASVKLSCKASGYTFTSYGISWVKQATGQGLEWIGEIYPRSGNTYYNEKFKGRATLTADKSTSTAYMELRSLRSEDSAVYFCARSTTVAPPPLWGTGTTVTVSSGGGGSGGGGSGGGGSDIQMTQSPSYLSASVGDRVTITCKASDHINNWLAWYQQKPGQAPRLLISGATSLETGVPSRFSGSGTGKDYTLTISSLQTEDFATYYCQQYWSTPYTFGGGTKVEIK | 26.4 |
